Reference source for all entries: patent EP1505064A1

target: human H4 (Homo sapiens); test: Calcium mobilization in CHO cells transfected with human H4 (Assay 1); conditions: calcium mobilization induced by 100 nM histamine in CHO-H4 cells; compounds at purity of about 40 to 90%; read-out: Activity Class
Sequence (Q9H3N8 whole entry): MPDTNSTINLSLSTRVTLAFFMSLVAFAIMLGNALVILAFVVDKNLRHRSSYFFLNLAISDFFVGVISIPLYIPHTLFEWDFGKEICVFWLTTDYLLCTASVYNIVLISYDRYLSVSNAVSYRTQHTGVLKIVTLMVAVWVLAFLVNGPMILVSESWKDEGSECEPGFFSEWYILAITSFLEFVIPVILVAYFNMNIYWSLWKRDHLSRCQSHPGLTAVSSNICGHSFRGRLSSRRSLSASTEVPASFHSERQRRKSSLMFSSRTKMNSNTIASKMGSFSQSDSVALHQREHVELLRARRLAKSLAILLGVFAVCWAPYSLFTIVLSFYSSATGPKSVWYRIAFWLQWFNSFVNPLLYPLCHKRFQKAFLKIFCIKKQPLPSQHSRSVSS
Where a name gives a salt, the structure may show the parent alone.
measured quantity: IC50

# annotated cases, reported IC50 shown
> print(dat)
                                   compound          subject.of.test  measured.quantity  experimental.result
1  CNC1CCN(c2cc(-c3cccc(C#N)c3)nc(N)n2)C1 (stereo not drawn) [Example 2, trihydrochloride]  human H4 (Homo sapiens)               IC50         20 to 100 nM
2  CNC1CCN(c2cc(-c3ccccc3)nc(N)n2)C1 (stereo not drawn) [Example 1, trihydrochloride]  human H4 (Homo sapiens)               IC50              < 20 nM
3  CN[C@H]1CCN(c2cc(-c3cccc([N+](=O)[O-])c3)nc(N)n2)C1 [Example 7, trihydrochloride]  human H4 (Homo sapiens)               IC50        100 to 500 nM
4  CN[C@H]1CCN(c2cc(-c3ccccc3)nc(N)n2)C1 [Example 8, trihydrochloride]  human H4 (Homo sapiens)               IC50         20 to 100 nM
5  CN[C@@H]1CCN(c2cc(-c3cccc([N+](=O)[O-])c3)nc(N)n2)C1 [Example 6, trihydrochloride]  human H4 (Homo sapiens)               IC50              < 20 nM

Record Nc1nc(-c2ccccc2)cc(N2CCC(N)C2)n1 (stereo not drawn) [Example 3, trihydrochloride] . Reported IC50: 20 to 100 nM
